Values from PubChem BioAssay (NCI)

System: SNB-75 CNS
protocol_summary: NCI-60 one-dose screen, 48 h
assay_context: 10 µM unless noted
Description: Growth inhibition of the SNB-75 human tumor cell line is measured as a screen for anti-cancer activity. Cells are grown in 96 well plates and exposed to the test compound for 48 hours. Compounds are tested at a single concentration, which is 10^-5 M for most compounds. The reported endpoint is percent growth (GI% or GIPRCNT), where numbers from 0 - 100% represent growth inhibition, and numbers from -100% - 0 represent cell death. For example, a value of 40 represents 60% growth inhibition. […]
The panel holds about 83,000 compounds, 20% with a hit somewhere; the sample as a whole holds those more often. Active and inactive are the calls of the source. How the source made its calls: active means growth percent below 10; inactive means the rest.
Select the matching outcome among active, inactive

Recorded test call requested for COc1cc(/C=C/C(=O)c2ccc(F)cc2)ccc1OCCCCOc1ccc(/C=C/C(=O)c2c(C)nc3ccccc3c2C)cc1OC
inactive

Recorded test call requested for Cc1cc(=O)n(C(=O)Nc2ccccc2Cl)c2cc(O)ccc12
inactive

Recorded test call requested for Cc1cc(C)c2c(c1)N(C)c1ncnc(-n3cnc4cc(C)ccc43)c1CC2C (centres undefined)
inactive

Recorded test call requested for CN(C)CCNC(=O)c1ccc(-c2nc3ccc4[nH]ncc4c3c3c2C2CCC3C2)cc1 (centres undefined)
active

Recorded test call requested for Nc1ncnc2c1C(c1ccc(Br)cc1)c1sc3c(F)cccc3c1O2 (centres undefined)
inactive

Recorded test call requested for CCOC(=O)C1=C(C)NC(=O)NC1c1c(Cl)n(CCCl)c2ccccc12 (centres undefined)
inactive

Recorded test call requested for COC12C=C/C(=C(/C(=O)OCc3ccncc3)C(=O)CCCCCCCCC3(OC)C=C/C(=C(/C(=O)OCc4ccncc4)C(=O)CCCCCCCC1)O3)O2
active

Recorded test call requested for N#CC1=C(c2ccccc2)Nc2c(c(-c3ccc(Cl)cc3)nn2-c2ccccc2)C12C(=O)Nc1ccc(Cl)cc12 (centres undefined)
active

Recorded test call requested for NS(=O)(=O)c1ccccc1NC(=O)Nc1nc2ccccc2s1
inactive

----------
Tested on: SR leukemia
protocol_summary: NCI-60 one-dose screen, 48 h
assay_context: 10 µM unless noted
Compounds without any hit were thinned out: in the full panel of roughly 83,000, 20% have a hit. Active and inactive are the calls of the source. How the source made its calls: active means growth percent below 10; inactive means the rest.
Select the matching outcome among active, inactive

Recorded test call requested for O=C1NC(=O)C(Cc2ccc(OCc3ccc(-c4ccc(Cl)cc4Cl)cc3)cc2)S1 (stereo not given)
inactive

Recorded test call requested for COc1ccc(Cc2cnc(NC(=O)c3cc(C)oc3C)s2)cc1
inactive

Recorded test call requested for CC(=O)/C(=C\c1c(-c2ccccc2)[nH]c2ccccc12)S(C)(=O)=O
active

Recorded test call requested for COC1=CC(c2ccc[nH]2)=N/C1=C\c1[nH]c(C)c(C(=O)OC(C)C)c1C
inactive

Recorded test call requested for COC(=O)c1cc(N=C2NC(=O)/C(=C/C=C/c3ccccc3)S2)ccc1O
inactive

Recorded test call requested for CN(C)S(=O)(=O)c1cccc(C(=O)Nc2nc(-c3ccc(F)c(F)c3)cs2)c1
inactive

Recorded test call requested for COc1ccc2c(c1OC)CO[C@@H]2[C@H]1c2c(cc3c(c2OC)OCO3)CCN1S(=O)(=O)c1cn(C)cn1
inactive

Recorded test call requested for Cc1ccc(C[P+](c2ccccc2)(c2ccccc2)c2ccccc2)cc1
active

Recorded test call requested for CCOC(=O)C/C(=N\Nc1cc(=O)[nH]c2ccc(Br)cc12)C(=O)OCC
inactive

Recorded test call requested for CCCNc1nc2ccccc2c2c1S(=O)(=O)c1ccc(Cl)cc1C2=O
active
